- Tested on: RAW 264.7
- assay: Cytotoxicity assessment (MTT)
- Assay type: cell-based, Murine
- studyConditions: peptide 10 µg/mL, 72 h, relative to untreated cells, mean ± SD, n = 3, SD
- Description: Murine macrophage cells (RAW 264.7; ATCC TIB-71™) were cultured in Dulbecco’s Modified Eagle’s Medium (DMEM) that was supplemented with 10% heat-inactivated fetal bovine serum (FBS) and 1% antibiotic solution. […] Cytotoxicity assessment was performed following the method described by Yang et al., with slight modifications. […] The percentage of cell viability was calculated relative to untreated cells using the following equation (5): […]
We begin with a simple list: items and their reported Cell viability, mean±SD.
quantityKind: Cell viability, mean±SD

* PFTMYFLL [P14, synthesized peptide identified from jellyfish fraction PUR20C] | 90.09±2.78^B %
* TDSPAPSETTD [P2, synthesized peptide identified from jellyfish fraction PUR20C] | 85.70%
* EIDKLPPESRP [P7, synthesized peptide identified from jellyfish fraction PUR20C] | 81.60%
* PMETDDQPNN [P17, synthesized peptide identified from jellyfish fraction PUR20C] | 83.65%
* KFNEVVYFL [P15, synthesized peptide identified from jellyfish fraction PUR20C] | 87.22%
* DAENKENVEE [P18, synthesized peptide identified from jellyfish fraction PUR20C] | 89.16%
* EQIYPMGEGDEL [P4, synthesized peptide identified from jellyfish fraction PUR20C] | 82.77±0.92%
* HSVLTASYRN [P5, synthesized peptide identified from jellyfish fraction PUR20C] | 87.58%
* LGAEGRSP [P13, synthesized peptide identified from jellyfish fraction PUR20C] | 82.77±1.53%
* LNIPKPKLNLL [P11, synthesized peptide identified from jellyfish fraction PUR20C] | 84.71%
* GKNCGETVWE [P9, synthesized peptide identified from jellyfish fraction PUR20C] | 87.34%
* NQKAMQELNE [P1, synthesized peptide identified from jellyfish fraction PUR20C] | 85.94%
* RPLAKIIP [P8, synthesized peptide identified from jellyfish fraction PUR20C] | 83.71%
* RARVVPMY [P6, synthesized peptide identified from jellyfish fraction PUR20C] | 85.47%
* NFTVLCDSLE [P10, synthesized peptide identified from jellyfish fraction PUR20C] | 85.35%
